Data provenance: ChEMBL document CHEMBL1649066

Tested on: Human immunodeficiency virus 1
Experimental details: Antiviral activity against maraviroc-resistant HIV1 isolate CC185 at IC90 concentration
Assay type: functional, organism-based
Calls of active or inactive are those of the source. The rule behind the calls is not given here.
Answer with one of the outcomes active, inactive

Answered examples (3):
{"Mol smiles": "Cc1nnc(C2CC2)n1[C@H]1C[C@H]2CC[C@@H](C1)N2CC[C@H](NC(=O)C1CCC(F)(F)CC1)c1ccccc1", "Class": "inactive"}
{"Mol smiles": "COC(=O)N1CCc2nc(C)n([C@H]3C[C@H]4CC[C@@H](C3)N4CC[C@H](NC(C)=O)c3cccc(F)c3)c2C1", "Class": "active"}
{"Mol smiles": "Cc1nnc(C(C)C)n1[C@H]1C[C@H]2CC[C@@H](C1)N2CC[C@H](NC(=O)C1CCC(F)(F)CC1)c1cccc(F)c1", "Class": "inactive"}

Query: For "CCCCN1C(=O)[C@@H]([C@H](O)C2CCCCC2)NC(=O)C12CCN(Cc1ccc(Oc3ccc(C(=O)O)cc3)cc1)CC2" , what call appears in the results of this test?
Reply: active

Query: For "COC(=O)N1CCc2c(nc(C)n2[C@H]2C[C@H]3CC[C@@H](C2)N3CC[C@H](NC(C)=O)c2cccc(F)c2)C1" , what call appears in the results of this test?
Reply: active

Query: For "CC(=O)N1CC(C(=O)N[C@@H](CCN2[C@@H]3CC[C@H]2C[C@@H](n2c(C)nc4ccccc42)C3)c2ccccc2)C1" , what call appears in the results of this test?
Reply: active

----------
Recorded clearance for the following compounds
Experimental details: Clearance in dog at 0.5 mg/kg, iv and 0.5 mg/kg, po
Format: ADME, organism-based, Canis lupus familiaris
Experimental conditions: in vivo
Answer in mL/min/kg, number only, no unit symbol.

Examples with answers:
{"Compound": "COC(=O)N1CCc2c(nc(C)n2[C@H]2C[C@H]3CC[C@@H](C2)N3CC[C@H](NC(C)=O)c2cccc(F)c2)C1", "Metric name": "clearance", "Result value": 36}
{"Compound": "COC(=O)N1CCc2nc(C)n([C@H]3C[C@H]4CC[C@@H](C3)N4CC[C@H](NC(C)=O)c3cccc(F)c3)c2C1", "Metric name": "clearance", "Result value": 36}

Then this compound:
Query: Write down clearance measured for item CC(=O)N[C@@H](CCN1[C@@H]2CC[C@H]1C[C@@H](n1c(C)nc3c1CCN(C(=O)C(C)C)C3)C2)c1cccc(F)c1 [PF-232798]
Reply: 36

----------
Recorded logD for the following compounds
Experimental details: Octanol-buffer partition coefficient, log D of the compound
Please reply with the number alone, leaving off any unit.

{"Compound": "CC(=O)N[C@@H](CCN1[C@@H]2CC[C@H]1C[C@@H](n1c(C)nc3c1CCN(C(C)=O)C3)C2)c1cccc(F)c1", "logD": 1.4}
{"Compound": "COC(=O)N[C@@H](CCN1[C@@H]2CC[C@H]1C[C@@H](n1c(C)nc3c1CN(C(=O)OC)CC3)C2)c1cccc(F)c1", "logD": 2.6}
{"Compound": "CC(=O)N[C@@H](CCN1[C@@H]2CC[C@H]1C[C@@H](n1c(C)nc3c1CCN(C(=O)C(C)C)C3)C2)c1cccc(F)c1 [PF-232798]", "logD": 2}

Then this compound:
Query: Write down logD measured for item "CC(=O)N[C@@H](CCN1[C@@H]2CC[C@H]1C[C@@H](n1c(C)nc3c1CN(C(C)=O)CC3)C2)c1ccccc1"
Reply: 0.6

----------
Experimental details: Intrinsic clearance in rat liver microsomes assessed per mg of protein
Assay type: ADME, Microsome
Metric name: microsomal CLint

Examples with answers:
{"Mol smiles": "COC(=O)N1CCc2c(nc(C)n2[C@H]2C[C@H]3CC[C@@H](C2)N3CC[C@H](NC(C)=O)c2cccc(F)c2)C1", "microsomal CLint": "< 6 µL/min/mg"}
{"Mol smiles": "Cc1nnc(C(C)C)n1[C@@H]1C[C@H]2CC[C@@H](C1)N2CC[C@H](NC(=O)C1CCC(F)(F)CC1)c1ccccc1", "microsomal CLint": "< 6 µL/min/mg"}
{"Mol smiles": "COC(=O)N1CCc2nc(C)n([C@H]3C[C@H]4CC[C@@H](C3)N4CC[C@H](NC(C)=O)c3cccc(F)c3)c2C1", "microsomal CLint": "15 µL/min/mg"}

Then this compound:
Query: Write down microsomal CLint measured for item "CC(=O)N[C@@H](CCN1[C@@H]2CC[C@H]1C[C@@H](n1c(C)nc3c1CCN(C(=O)C(C)C)C3)C2)c1cccc(F)c1"
Reply: < 6 µL/min/mg

----------
Tested on: Human immunodeficiency virus 1
Experimental details: Antiviral activity against maraviroc-resistant HIV1 isolate CC185 at 100 times IC90 concentration
Type: functional, organism-based
Active and inactive are the calls of the source. The calls are words filed in the database; no cut-off is given here.
Answer with one of the outcomes T (active), F (inactive)

Answered examples (5):
{"Mol smiles": "CC(=O)N[C@@H](CCN1[C@@H]2CC[C@H]1C[C@@H](n1c(C)nc3c1CCN(C(=O)C(C)C)C3)C2)c1cccc(F)c1", "Class": "T"}
{"Mol smiles": "CCCCN1C(=O)[C@@H]([C@H](O)C2CCCCC2)NC(=O)C12CCN(Cc1ccc(Oc3ccc(C(=O)O)cc3)cc1)CC2", "Class": "T"}
{"Mol smiles": "CC(=O)N1CC(C(=O)N[C@@H](CCN2[C@@H]3CC[C@H]2C[C@@H](n2c(C)nc4ccccc42)C3)c2ccccc2)C1", "Class": "T"}
{"Mol smiles": "Cc1nc2ccccc2n1[C@H]1C[C@H]2CC[C@@H](C1)N2CC[C@H](NC(=O)C1CCOCC1)c1ccccc1", "Class": "T"}
{"Mol smiles": "COC(=O)N1CCc2c(nc(C)n2[C@H]2C[C@H]3CC[C@@H](C2)N3CC[C@H](NC(C)=O)c2cccc(F)c2)C1", "Class": "T"}

Query: For "Cc1nnc(C2CC2)n1[C@H]1C[C@H]2CC[C@@H](C1)N2CC[C@H](NC(=O)C1CCC(F)(F)CC1)c1ccccc1" , what call appears in the results of this test?
Reply: F

Query: For "CCC(=O)N1CCc2c(nc(C)n2[C@H]2C[C@H]3CC[C@@H](C2)N3CC[C@H](NC(C)=O)c2cccc(F)c2)C1" , what call appears in the results of this test?
Reply: T

----------
Experimental details: Apparent permeability from basolateral to apical side of human Caco2 cells
Experimental conditions: Caco-2
Recorded Papp B→A for the following compounds
Answer in ×10⁻⁶ cm/s, number only, no unit symbol.

Examples with answers:
{"Mol smiles": "CCCC(=O)N1CCc2c(nc(C)n2[C@H]2C[C@H]3CC[C@@H](C2)N3CC[C@H](NC(C)=O)c2cccc(F)c2)C1", "Papp B→A [×10⁻⁶ cm/s]": 26}
{"Mol smiles": "Cc1nc(C(C)C)n([C@H]2C[C@H]3CC[C@@H](C2)N3CC[C@H](NC(=O)C2CCC(F)(F)CC2)c2ccccc2)n1", "Papp B→A [×10⁻⁶ cm/s]": 26}
{"Mol smiles": "COC(=O)N1CCc2c(nc(C)n2[C@H]2C[C@H]3CC[C@@H](C2)N3CC[C@H](NC(C)=O)c2cccc(F)c2)C1", "Papp B→A [×10⁻⁶ cm/s]": 11}

Query: Write down Papp B→A measured for item "CC(=O)N[C@@H](CCN1[C@@H]2CC[C@H]1C[C@@H](n1c(C)nc3c1CCN(C(=O)C(C)C)C3)C2)c1cccc(F)c1"
Reply: 8

Query: Write down Papp B→A measured for item "COC(=O)N[C@@H](CCN1[C@@H]2CC[C@H]1C[C@@H](n1c(C)nc3c1CN(C(=O)OC)CC3)C2)c1cccc(F)c1"
Reply: 17

----------
Experimental details: Plasma protein binding in rat at 1 mg/kg, iv and 10 mg/kg, po
Format: ADME, organism-based
Experimental conditions: read-out: PPB (converted)
Metric name: fraction unbound
Please reply with the number alone, leaving off any unit.

Query: Write down fraction unbound measured for item Cc1nnc(C(C)C)n1[C@@H]1C[C@H]2CC[C@@H](C1)N2CC[C@H](NC(=O)C1CCC(F)(F)CC1)c1ccccc1 [MARAVIROC]
Reply: 0.54

----------
Experimental details: Apparent permeability from basolateral to apical side of human Caco2 cells
Experimental conditions: Caco-2
Recorded Papp B→A for the following molecules
Answer in ×10⁻⁶ cm/s, number only, no unit symbol.

Examples with answers:
{"Molecule": "CC(=O)N[C@@H](CCN1[C@@H]2CC[C@H]1C[C@@H](n1c(C)nc3c1CN(C(=O)OC(C)C)CC3)C2)c1ccccc1", "Result value": 28}
{"Molecule": "CCC(=O)N1CCc2nc(C)n([C@H]3C[C@H]4CC[C@@H](C3)N4CC[C@H](NC(C)=O)c3ccccc3)c2C1", "Result value": 17}
{"Molecule": "CCC(=O)N1CCc2c(nc(C)n2[C@H]2C[C@H]3CC[C@@H](C2)N3CC[C@H](NC(C)=O)c2cccc(F)c2)C1", "Result value": 13}
{"Molecule": "COC(=O)N[C@@H](CCN1[C@@H]2CC[C@H]1C[C@@H](n1c(C)nc3c1CN(C(C)=O)CC3)C2)c1cccc(F)c1", "Result value": 23}
{"Molecule": "CC(=O)N[C@@H](CCN1[C@@H]2CC[C@H]1C[C@@H](n1c(C)nc3c1CCN(C(C)=O)C3)C2)c1cccc(F)c1", "Result value": 6}

Query: Write down Papp B→A measured for item Cc1nnc(C(C)C)n1[C@@H]1C[C@H]2CC[C@@H](C1)N2CC[C@H](NC(=O)C1CCC(F)(F)CC1)c1ccccc1 [MARAVIROC]
Reply: 12

Query: Write down Papp B→A measured for item "CC(=O)N[C@@H](CCN1[C@@H]2CC[C@H]1C[C@@H](n1c(C)nc3c1CCN(C(=O)C(C)(C)C)C3)C2)c1cccc(F)c1"
Reply: 24
